Here the recorded GI50 is given for each entry.
system: SNB-75; test: NCI tumour cell line growth inhibition, 48 h
Activity calls are given as the source filed them. No stated cut-off is given here; in the data, active = GI50 up to about 1.1 µM and inactive = higher.

Example entries and their recorded answers appear below.
molecule	measured_value
CCCCc1ccc(N2C(=O)c3cccnc3S2(=O)=O)cc1	> 100 µM (inactive)
O=C(CNc1ccc(Cl)cc1)Nn1c(-c2ccccc2)nc2ccccc2c1=O	10.1 µM (inactive)

Item O=C([O-])C1([n+]2c(-c3ccccc3)cc(-c3ccccc3)cc2-c2ccccc2)CC1 ; assay system SNB-75; GI50 reported as 46.8 µM (inactive)

Item COc1ccc(C(c2ccc(C(C)C)cc(OC)c2=O)c2ccc(C(C)C)cc(OC)c2=O)cc1 ; assay system SNB-75; GI50 reported as 19.6 µM (inactive)

Item COc1nc(Cl)c(Cl)c(Cl)n1.COc1nc(Cl)nc(Cl)c1Cl ; assay system SNB-75; GI50 reported as 10.3 µM (inactive)

Item C=CCNC(=O)NC1=CSC2=NC(=O)C3(NN12)c1ccccc1-c1ccccc13 ; assay system SNB-75; GI50 reported as > 10 µM (inactive)

Item O=C1C=CC2(C=C1)CCNC1=C2C(=O)c2ccccc2C1=O ; assay system SNB-75; GI50 reported as 30.8 µM (inactive)

Item Nc1nc(SCCNC(=O)CCc2ccc(O)c(I)c2)nc2c1ncn2C1OC(CO)C(O)C1O (configuration not stated) ; assay system SNB-75; GI50 reported as > 100 µM (inactive)

Item O.O=C([O-])c1ccccc1Nc1ccccc1C(=O)[O-].[Zn+2] ; assay system SNB-75; GI50 reported as 18.3 µM (inactive)

Item CC1(C)OCC(C2OC(OC(=O)c3ccc(C(F)(F)F)cc3)C3OC(C)(C)OC23)O1 (configuration not stated) ; assay system SNB-75; GI50 reported as 40.2 µM (inactive)

Item C[C@]12CC[C@H](OCCC#N)CC1=CC[C@@H]1C2CC[C@]2(C)/C(=N/OCCC#N)CCC12 (some centres not stated) ; assay system SNB-75; GI50 reported as 28.1 µM (inactive)

Item OC1CC2CCC(C1)N2CCCN1c2ccccc2Sc2ccc(Cl)cc21 (configuration not stated) ; assay system SNB-75; GI50 reported as 2.21 µM (inactive)

Item CC1=NN(c2nc(N)nc(CF)n2)C(C)(C)C1 ; assay system SNB-75; GI50 reported as > 100 µM (inactive)

Item CC(NS(=O)(=O)c1ccc(Cl)cc1)C(=O)O (configuration not stated) ; assay system SNB-75; GI50 reported as > 100 µM (inactive)

Item Nc1nc(Cl)cc(NCC2(O)CCC2)n1 ; assay system SNB-75; GI50 reported as > 100 µM (inactive)

Item Nc1ccn([C@@H]2C=C(CO)[C@@H](O)[C@H]2O)c(=O)n1 ; assay system SNB-75; GI50 reported as 2.07 µM (inactive)

----------
system: HCC 2998; assay: NCI tumour cell line growth inhibition, 48 h
The source made the active and inactive calls. Rule as the data show it: active = GI50 up to about 1.1 µM and inactive = higher.
Log the outcome using a class from y for active, n for inactive

Worked examples follow.
compound	system_tested	label_value
O=C1C(Cl)=C(N2CCN(CCOCCO)CC2)C(=O)c2ncccc21	HCC 2998	n
CCN1CCN=C2c3cc(OC)ccc3Nc3c([N+](=O)[O-])ccc1c32	HCC 2998	y

# fetch the recorded call for O=C(c1ccccc1)C(c1ccccc1)C1(O)C(=O)Nc2c(Cl)cc(Cl)cc21 (stereo unspecified) here
n

# fetch the recorded call for N#Cc1c(N2CCCC2)ncn(Cc2ccccc2)c1=O here
n

# fetch the recorded call for CCOC(=O)C(C)(C)Oc1ccc2c(C)c(-c3ccc(Cl)cc3)c(=O)oc2c1 here
n

# fetch the recorded call for CCc1nc(N)nc(N)c1-c1ccc(Cl)c(N=[N+]=[N-])c1 here
n

# fetch the recorded call for CC(C)C(C)C(C)(C)P(C)(C)=O (stereo unspecified) here
n

# fetch the recorded call for c1ccc2c3c([nH]c2c1)[C@H]1C2CCCCN2CN1CC3 (stereo partly specified) here
n

# fetch the recorded call for NC(=O)C/C=C/CC(N)=O here
n

# fetch the recorded call for CCCC(=O)Nc1ncnc2c1ncn2C1OC2COP(=O)(O)OC2C1OC(=O)CCC (stereo unspecified) here
n

# fetch the recorded call for Cc1ccc(S(=O)(=O)C(C#N)c2nc3ccccc3nc2-n2cccn2)cc1 (stereo unspecified) here
n
